Data origin, for the record: the supplement of paper PMC10290057

Attribute: log10(AC50 cell viability)
- Test system: HCT116;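 also: HCT116 colorectal carcinoma cells screened at five concentrations per compound, luminescent viability scaled between DMSO wells and empty wells on each plate, curves fitted per compound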
- Protocol Text: AC50 cell viability (CellTiter-Glo); higher = less potent
- Experimental Conditions: 48 h
Reported Endpoint: log10(AC50 cell viability) (log10 of the value in µM)

{"Compound": "CNCc1ccc(-c2cc(-c3nc(-c4ccc([S+](=O)([O-])C(C)C)cc4)cnc3N)on2)cc1", "System Name": "HCT116", "log10(AC50 cell viability)": 1.02}
{"Compound": "C[C@H](Cc1ccc(O)c(O)c1)[C@@H](C)Cc1ccc(O)c(O)c1", "System Name": "HCT116", "log10(AC50 cell viability)": 1.27}
{"Compound": "COc1ccccc1N1CCN(CC(O)COc2cccc3ccccc23)CC1 (centres undefined)", "System Name": "HCT116", "log10(AC50 cell viability)": 1.27}
{"Compound": "CO[C@H]1CCC(O[C@H]2C[C@H]([C@]3(C)CC[C@]4(C[C@H](O)[C@@H](C)[C@@H]([C@@H](C)/C=C(\\C)C(=O)[C@H](C)C[C@H](C)C(=O)[O-])O4)O3)O[C@]3(O[C@@H]([C@H]4O[C@@](O)(CO)[C@H](C)C[C@@H]4C)C[C@@H]3C)[C@@H]2C)O[C@@H]1C (some centres undefined)", "System Name": "HCT116", "log10(AC50 cell viability)": 0.47}
{"Compound": "CCCCC(C)(C)[C@H](O)/C=C/[C@H]1[C@H](O)CC(=O)[C@@H]1C/C=C\\CCCC(=O)O", "System Name": "HCT116", "log10(AC50 cell viability)": 1.32}
{"Compound": "FC(F)(F)c1ccc(/C=C/c2nc(COc3ccc(CCCCn4ccnn4)cc3)co2)cc1", "System Name": "HCT116", "log10(AC50 cell viability)": -1.68}
{"Compound": "CCNC(=O)C#Cc1ccc2c(c1)NC(=O)/C2=C(\\Nc1ccc(CN(C)C)cc1)c1ccccc1", "System Name": "HCT116", "log10(AC50 cell viability)": -0.59}
{"Compound": "COc1cc(Nc2c(C#N)cnc3cc(OCCCN4CCN(C)CC4)c(OC)cc23)c(Cl)cc1Cl", "System Name": "HCT116", "log10(AC50 cell viability)": 0.67}
{"Compound": "NC\\1=N\\C(=O)N(\\C=C1)[C@@H]2O[C@H](CO)[C@@H](O)[C@@H]2O", "System Name": "HCT116", "log10(AC50 cell viability)": -1.13}
{"Compound": "Fc1ccc(C(OCCN2CCN(CCCc3ccccc3)CC2)c2ccc(F)cc2)cc1", "System Name": "HCT116", "log10(AC50 cell viability)": 1.07}
{"Compound": "CCCC(CCC)C(=O)NC/1=N/C(=O)N(/C=C1)[C@@H]2O[C@H](CO)[C@@H](O)C2(F)F", "System Name": "HCT116", "log10(AC50 cell viability)": 0.42}
{"Compound": "CC1=CC=CC=C1CN2C(=O)C/3=C(/CCN(CC4=CC=CC=C4)C3)N\\5CC\\N=C25", "System Name": "HCT116", "log10(AC50 cell viability)": 0.47}
{"Compound": "N#Cc1ccc(COC[C@H]2O[C@@H](n3c(NCc4ccc(Cl)c(Cl)c4)nc4c(N)ncnc43)[C@H](O)[C@@H]2O)cc1", "System Name": "HCT116", "log10(AC50 cell viability)": 1.22}
{"Compound": "Cc1[nH]c(/C=C2\\C(=O)Nc3ccc([S+](=O)([O-])N(C)c4cccc(Cl)c4)cc32)c(C)c1C(=O)N1CCN(C)CC1", "System Name": "HCT116", "log10(AC50 cell viability)": 1.17}
